Tested on: NS5A chimeric genotype 1b Con1 replicon with genotype 3a S52 strain NS5A gene
testSummary: Replicon assay, genotype 3a NS5A chimera
Assay type: cell-based, HCV
condition: Hepatitis C virus, read-out: 3a (s) (nM), genotype 3a NS5A chimeric replicon, stable replicon cells (s)
Some compounds, each annotated with its measured EC50.
Reply with just the number (in nM).

Sample answers from the record:
| smilesEntry | tgt | unitInfo | EC50 |
| --- | --- | --- | --- |
| CC[C@H](C)[C@H](NC(=O)OC)C(=O)N1CCC[C@H]1c1ncc(-c2ccc3c(c2)COc2cc4c(ccc5nc([C@@H]6CCCN6C(=O)[C@@H](NC(=O)OC)[C@@H](C)CC)[nH]c54)cc2-3)[nH]1 | NS5A chimeric genotype 1b Con1 replicon with genotype 3a S52 strain NS5A gene | nM | 0.06 |
| CCC[C@H]1CC[C@@H](c2nc3ccc4cc5c(cc4c3[nH]2)OCc2cc(-c3cnc([C@@H]4CC[C@H](C)N4C(=O)[C@@H](NC(=O)OC)C(C)C)[nH]3)ccc2-5)N1C(=O)[C@@H](NC(=O)OC)C1CCOCC1 | NS5A chimeric genotype 1b Con1 replicon with genotype 3a S52 strain NS5A gene | nM | 0.236 |

Let's switch to this compound now.
Entry `CC[C@H]1CC[C@@H](c2ncc(-c3ccc4c(c3)COc3cc5c(ccc6nc([C@@H]7C[C@H](C)CN7C(=O)[C@@H](NC(=O)OC)C(C)C)[nH]c65)cc3-4)[nH]2)N1C(=O)[C@@H](NC(=O)OC)C1CCOCC1` , EC50 reported as 0.116

====

Test system: stable HCV 2a JFH-1 Rluc replicon cells (L31 present in NS5A)
testSummary: Renilla luciferase HCV replicon reporter assay, genotype 2a JFH-1
Format: cell-based
condition: Hepatitis C virus, read-out: 2a JFH (nM), genotype 2a JFH-1 replicon (L31 in NS5A), stable cells
Some compounds, each annotated with its measured EC50.
Reply with just the number (in nM).

| smilesEntry | endpointName | unitInfo | number |
| --- | --- | --- | --- |
| CC[C@H]1CC[C@@H](c2ncc(-c3ccc4c(c3)COc3cc5c(ccc6nc([C@@H]7CC[C@H](C)N7C(=O)[C@@H](NC(=O)OC)C(C)C)[nH]c65)cc3-4)[nH]2)N1C(=O)[C@@H](NC(=O)OC)C1CCOCC1 | EC50 | nM | 0.024 |

Let's switch to this compound now.
Entry `CC[C@H]1CC[C@@H](c2nc3ccc4cc5c(cc4c3[nH]2)OCc2cc(-c3cnc([C@@H]4CC[C@H](C)N4C(=O)[C@@H](NC(=O)OC)[C@@H](C)OC)[nH]3)ccc2-5)N1C(=O)[C@@H](NC(=O)OC)[C@@H](C)OC` , EC50 reported as 0.03

====

Tested on: NS5A chimeric genotype 2a JFH-1 replicon with genotype 2b MD2b-1 strain NS5A gene (M31 present)
testSummary: Replicon assay, genotype 2b NS5A chimera
Format: cell-based, HCV
condition: Hepatitis C virus, read-out: 2b (s) (nM), genotype 2b MD2b-1 NS5A chimeric replicon (M31), stably replicating replicon cells (s)
endpointName: EC50
Note: state the figure and append the unit.

| compound | EC50 |
| --- | --- |
| CC[C@H](C)[C@H](NC(=O)OC)C(=O)N1C[C@@H](COC)C[C@H]1c1ncc(-c2ccc3c(c2)COc2cc4c(ccc5nc([C@@H]6CC[C@H](C)N6C(=O)[C@@H](NC(=O)OC)[C@@H](C)OC)[nH]c54)cc2-3)[nH]1 | 0.395 nM |
| COC(=O)N[C@@H](C)C(=O)N1[C@@H](C)CC[C@H]1c1nc2ccc3cc4c(cc3c2[nH]1)OCc1cc(-c2cnc([C@@H]3CC[C@H](C)N3C(=O)[C@@H](NC(=O)OC)C(C)C)[nH]2)ccc1-4 | 1.82 nM |
| COC(=O)N[C@H](C(=O)N1[C@@H](C)CC[C@H]1c1ncc(-c2ccc3c(c2)COc2cc4c(ccc5nc([C@@H]6CC[C@H](C)N6C(=O)[C@@H](NC(=O)OC)[C@H](C)OC)[nH]c54)cc2-3)[nH]1)[C@H](C)OC | 0.772 nM |
| CC[C@H]1C[C@@H](c2ncc(-c3ccc4c(c3)COc3cc5c(ccc6nc([C@@H]7CC[C@H](C)N7C(=O)[C@@H](NC(=O)OC)C(C)C)[nH]c65)cc3-4)[nH]2)N(C(=O)[C@@H](NC(=O)OC)[C@@H](C)OC)C1 | 1.18 nM |
| COC(=O)N[C@H](C(=O)N1[C@@H](C)CC[C@H]1c1ncc(-c2ccc3c(c2)COc2cc4c(ccc5nc([C@@H]6CC[C@H](C)N6C(=O)[C@@H](NC(=O)OC)C6CC6)[nH]c54)cc2-3)[nH]1)C(C)C | 1.9 nM |

Entry `CC[C@H]1CC[C@@H](c2nc3ccc4cc5c(cc4c3[nH]2)OCc2cc(-c3cnc([C@@H]4C[C@H](C)CN4C(=O)[C@@H](NC(=O)OC)C(C)C)[nH]3)ccc2-5)N1C(=O)[C@@H](NC(=O)OC)C1CCOCC1` , EC50 reported as 0.083 nM

Entry `CC[C@H](C)[C@H](NC(=O)OC)C(=O)N1C[C@@H](C)C[C@H]1c1nc2ccc3cc4c(cc3c2[nH]1)OCc1cc(-c2cnc([C@@H]3CC[C@H](C)N3C(=O)[C@@H](NC(=O)OC)C(C)C)[nH]2)ccc1-4` , EC50 reported as 0.794 nM

Entry `COC(=O)N[C@@H](CO)C(=O)N1[C@@H](C)CC[C@H]1c1nc2ccc3cc4c(cc3c2[nH]1)OCc1cc(-c2cnc([C@@H]3CC[C@H](C)N3C(=O)[C@@H](NC(=O)OC)C(C)C)[nH]2)ccc1-4` , EC50 reported as 1.15 nM

====

System: stable HCV 2a JFH-1 Rluc replicon cells (L31 present in NS5A)
testSummary: Renilla luciferase HCV replicon reporter assay, genotype 2a JFH-1
Type: cell-based
condition: Hepatitis C virus, read-out: 2a JFH (nM), genotype 2a JFH-1 replicon (L31 in NS5A), stable cells
Some molecules, each annotated with its measured EC50.
Reply with just the number (in nM).

Sample answers from the record:
| molecule | number |
| --- | --- |
| COC(=O)N[C@H](C(=O)N1C[C@@H](C)C[C@H]1c1ncc(-c2ccc3c(c2)COc2cc4c(ccc5nc([C@@H]6C[C@H](C)CN6C(=O)[C@@H](NC(=O)OC)[C@@H](C)OC)[nH]c54)cc2-3)[nH]1)[C@@H](C)OC [EZ] | 0.016 |
| CC[C@H]1CC[C@@H](c2ncc(-c3ccc4c(c3)COc3cc5c(ccc6nc([C@@H]7CC[C@H](C)N7C(=O)[C@@H](NC(=O)OC)[C@@H](C)OC)[nH]c65)cc3-4)[nH]2)N1C(=O)[C@@H](NC(=O)OC)[C@@H](C)OC [EM] | 0.012 |
| CC[C@H](C)[C@H](NC(=O)OC)C(=O)N1C[C@@H](COC)C[C@H]1c1ncc(-c2ccc3c(c2)COc2cc4c(ccc5nc([C@@H]6CC[C@H](C)N6C(=O)[C@@H](NC(=O)OC)[C@@H](C)OC)[nH]c54)cc2-3)[nH]1 [FT] | 0.029 |

Entry CC[C@H]1C[C@@H](c2nc3ccc4cc5c(cc4c3[nH]2)OCc2cc(-c3cnc([C@@H]4CC[C@H](C)N4C(=O)[C@@H](NC(=O)OC)C(C)C)[nH]3)ccc2-5)N(C(=O)[C@@H](NC(=O)OC)C2CCOCC2)C1 [GV] , EC50 reported as 0.008

====

System: stable HCV 2a JFH-1 Rluc replicon cells (L31 present in NS5A)
testSummary: Renilla luciferase HCV replicon reporter assay, genotype 2a JFH-1
Type: cell-based
condition: Hepatitis C virus, read-out: 2a JFH (nM), genotype 2a JFH-1 replicon (L31 in NS5A), stable cells
endpointName: EC50 (nM)
Reply with just the number (in nM).

| molecule | EC50 (nM) |
| --- | --- |
| CC[C@H]1CC[C@@H](c2ncc(-c3ccc4c(c3)COc3cc5c(ccc6nc([C@@H]7C[C@@H]8CCC[C@@H]8N7C(=O)[C@@H](NC(=O)OC)C(C)C)[nH]c65)cc3-4)[nH]2)N1C(=O)[C@@H](NC(=O)OC)C1CCOCC1 [IN] | 0.03 |

Kindly note: stable HCV 2a JFH-1 Rluc replicon cells (L31 present in NS5A), CC[C@H]1CC[C@@H](c2ncc(-c3ccc4c(c3)COc3cc5c(ccc6nc([C@@H]7C[C@H](C)CN7C(=O)[C@@H](NC(=O)OC)[C@@H](C)OC)[nH]c65)cc3-4)[nH]2)N1C(=O)[C@@H](NC(=O)OC)C(C)C [GO] , EC50 value reported: 0.025

Kindly note: stable HCV 2a JFH-1 Rluc replicon cells (L31 present in NS5A), CC[C@H]1CC[C@@H](c2nc3ccc4cc5c(cc4c3[nH]2)OCc2cc(-c3cnc([C@@H]4C[C@H](C)CN4C(=O)[C@@H](NC(=O)OC)C(C)C)[nH]3)ccc2-5)N1C(=O)[C@@H](NC(=O)OC)C1CCOCC1 [IS] , EC50 value reported: 0.018

Kindly note: stable HCV 2a JFH-1 Rluc replicon cells (L31 present in NS5A), COC(=O)N[C@H](C(=O)N1[C@@H](C)CC[C@H]1c1ncc(-c2ccc3c(c2)COc2cc4c(ccc5nc([C@@H]6CC[C@H](C)N6C(=O)[C@@H](NC(=O)OC)[C@@H](C)OC)[nH]c54)cc2-3)[nH]1)C(C)C [FA] , EC50 value reported: 0.014
